# protocol-text: qHTS RealTime-Glo MT Cell Viability Assay in HEK293 cells - 16 hour (AID 1224872); also: top concentration of the series differs between compounds; % is scaled to controls: 0 for no effect and ±100 for the full control effect; nearly all actives have a fitted effect of over 50% in size
# applied-conditions: RealTime-Glo luminescence; series mostly up to 76.8 µM
Records with an inconclusive call do not appear. Activity calls are given as the source filed them. Calls follow the shape of the dose curve; as a rule, active = well fitted cell-killing curve with a large enough effect in the repeat runs; inconclusive = weak or mixed curves, or effect the other way; inactive = flat fitted curve, though single readings scatter.
measurement-kind: activity change, negative = cytotoxicity

Please review the following examples before continuing.
Looking up CC(C(=O)O)c1ccc(CC2CCCC2=O)cc1 (stereo unspecified) , I see its activity change, negative = cytotoxicity listed as inactive

Looking up CO/N=C(/C(=O)N[C@@H]1C(=O)N2C(C(=O)OCOC(=O)C(C)(C)C)=C(C)CS[C@H]12)c1csc(N)n1 , I see its activity change, negative = cytotoxicity listed as inactive

Looking up C[C@](N)(Cc1ccc(O)cc1)C(=O)O , I see its activity change, negative = cytotoxicity listed as 1.36% [at 6.97 µM] (inactive)

Looking up COCCc1ccc(OCC(O)CNC(C)C)cc1 (stereo unspecified) , I see its activity change, negative = cytotoxicity listed as inactive

Looking up Cc1nc2c([nH]1)c(=O)n(C)c(=O)n2Cc1ccco1 , I see its activity change, negative = cytotoxicity listed as inactive

We next turn to a different compound, shown below.
Looking up ClC(Cl)(Br)Br , I see its activity change, negative = cytotoxicity listed as inactive

* * *

# protocol-text: qHTS assay to identify small molecule agonists of the AP-1 signaling pathway - cell viability counter screen (AID 1159525); also: nearly all actives have a fitted effect of over 55% in size
# applied-conditions: ME-180 (cervical carcinoma) AP-1-bla cells viability, ATP luminescence, 5 h; series mostly up to 76.8 µM
Records with an inconclusive call do not appear. Active and inactive are the calls of the source. Calls follow the shape of the full dose curve.
measurement-kind: viability change, negative = cytotoxic

Looking up NC(=O)c1ccc([N+](=O)[O-])cc1 , I see its viability change, negative = cytotoxic listed as inactive

Looking up CCC(C)C1CCCCC1=O (stereo not drawn) , I see its viability change, negative = cytotoxic listed as inactive

Looking up Nc1ccccc1S(=O)(=O)O , I see its viability change, negative = cytotoxic listed as inactive

Looking up C=C1CC[C@H]2C[C@@H]1C2(C)C , I see its viability change, negative = cytotoxic listed as inactive

Looking up Cc1[nH]c(=O)c(C#N)cc1-c1ccc2nccn2c1 , I see its viability change, negative = cytotoxic listed as inactive

Looking up CCN1CCC[C@H]1CNC(=O)c1c(O)c(Cl)cc(Cl)c1OC , I see its viability change, negative = cytotoxic listed as inactive

Next:
Looking up N[C@@H](C(=O)N[C@@H]1C(=O)N2C(C(=O)O)=C(Cl)CS[C@H]12)c1ccccc1 , I see its viability change, negative = cytotoxic listed as 3.61% [at 6.97 µM] (inactive)

Looking up NCCCNCCSP(=O)(O)O , I see its viability change, negative = cytotoxic listed as -1.42% [at 6.97 µM] (inactive)

Looking up CC(C)c1cc2c(cc1S(=O)(=O)O)[C@@]1(C)CCC[C@@](C)(C(=O)O)[C@@H]1CC2 , I see its viability change, negative = cytotoxic listed as inactive

Looking up CC(=O)c1ccccc1O , I see its viability change, negative = cytotoxic listed as inactive

Looking up O=c1cc(-c2ccccc2)oc2ccccc12 , I see its viability change, negative = cytotoxic listed as inactive

Looking up Oc1ccc(C2CNCCc3c2cc(O)c(O)c3Cl)cc1 (stereo not drawn) , I see its viability change, negative = cytotoxic listed as inactive

Looking up NC(=O)c1ccc(N)cc1 , I see its viability change, negative = cytotoxic listed as inactive

* * *

# target-under-test: Cytochrome P450 1A2 (Homo sapiens) (UniProt P05177)
# Sequence (P05177 whole entry, looked up): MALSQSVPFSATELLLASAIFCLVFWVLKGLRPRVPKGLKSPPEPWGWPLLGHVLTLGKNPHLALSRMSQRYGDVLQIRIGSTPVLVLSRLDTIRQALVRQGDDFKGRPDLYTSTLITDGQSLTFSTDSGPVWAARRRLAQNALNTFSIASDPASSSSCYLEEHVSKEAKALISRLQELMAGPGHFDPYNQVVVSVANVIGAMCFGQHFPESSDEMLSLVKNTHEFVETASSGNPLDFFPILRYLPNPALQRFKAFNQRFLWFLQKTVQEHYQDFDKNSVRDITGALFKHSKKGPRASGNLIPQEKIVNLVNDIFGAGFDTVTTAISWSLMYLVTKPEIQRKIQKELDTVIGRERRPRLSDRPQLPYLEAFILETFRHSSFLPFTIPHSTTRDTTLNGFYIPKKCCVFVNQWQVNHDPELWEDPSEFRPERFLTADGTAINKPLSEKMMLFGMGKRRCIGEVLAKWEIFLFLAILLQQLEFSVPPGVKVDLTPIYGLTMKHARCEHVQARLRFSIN
# protocol-text: Cytochrome P450 Family 1 Subfamily A Member 2 (CYP1A2) small molecule antagonists: luciferase reporter qHTS assay (AID 1671199); also: nearly all actives have a fitted effect of over 50% in size
# applied-conditions: P450-Glo CYP1A2 enzyme, luciferin luminescence, 1 h; series mostly up to 53 µM
Inconclusive results are not listed. Activity calls are given as the source filed them. Calls come from the whole dose curve; as a rule, active = well fitted inhibition curve with a large enough effect in the repeat runs; inconclusive = weak or mixed curves; inactive = no such curve, though single readings can be large or run the other way.
Respond with a class label; see YES (active), NO (inactive)

(Q) What did the test return for Cc1[nH]c(=O)c(C#N)cc1-c1ccc2nccn2c1 ?
(A) NO

(Q) What did the test return for COC(C)(C)CCCC(C)CC=O (stereo not drawn) ?
(A) NO

(Q) What did the test return for N[C@H]1CN(c2c(F)cc3c(=O)c(C(=O)O)cn(C4C[C@H]4F)c3c2Cl)CC12CC2 (stereo partly drawn) ?
(A) NO

(Q) What did the test return for CCCN(CCC)CCc1cccc2c1CC(=O)N2 ?
(A) NO

(Q) What did the test return for COc1ccccc1OCC(O)CN1CCN(CC(=O)Nc2c(C)cccc2C)CC1 (stereo not drawn) ?
(A) NO

(Q) What did the test return for Nc1c[n+](N2CCOCC2)no1 ?
(A) NO

Next:
(Q) What did the test return for O=Cc1cccc([N+](=O)[O-])c1 ?
(A) YES

(Q) What did the test return for CN(C)CCCSc1ccccc1NC(=O)/C=C/c1ccccc1 ?
(A) NO

(Q) What did the test return for CCOc1ccc(C(=O)OCCN(CC)CC)cc1 ?
(A) YES

(Q) What did the test return for CCSC(=O)N(CC(C)C)CC(C)C ?
(A) NO

(Q) What did the test return for CCN(CC)CCOCCOC(=O)C1(c2ccccc2)CCCC1 ?
(A) NO

(Q) What did the test return for O=C(c1ccccc1)C1CCCCC1 ?
(A) YES

* * *

# protocol-text: qHTS assay to identify small molecule antagonists of the thyroid receptor (TR) signaling pathway - cell viability counter screen (AID 743064); also: nearly all actives have a fitted effect of over 50% in size
# applied-conditions: GH3.TRE-Luc viability, CellTiter-Fluor, 24 h; series mostly up to 70.3 µM
Records with an inconclusive call do not appear. Calls of active or inactive are those of the source. Calls come from the whole dose curve; as a rule, active = well fitted cell-killing curve with a large enough effect in the repeat runs; inconclusive = weak or mixed curves, or effect the other way; inactive = no such curve, though single readings can be large or run the other way.
Respond with a class label; see yes (1) for active, no (0) for inactive

Would you please look over these solved cases?
(Q) What did the test return for CC1(C)C(O)C(C)(C)C1O (stereo not given) ?
(A) no (0)

(Q) What did the test return for O=S(O)CO ?
(A) no (0)

(Q) What did the test return for N=c1nc(N2CCCCC2)cc(N)n1O ?
(A) no (0)

(Q) What did the test return for CO[Si](CCCOCC1CO1)(OC)OC (stereo not given) ?
(A) no (0)

(Q) What did the test return for C=CCCCCCCCCC=O ?
(A) no (0)

Next:
(Q) What did the test return for OC1CCCCC1c1ccccc1 (stereo not given) ?
(A) no (0)

(Q) What did the test return for CC(C(=O)O)c1ccc(CC2CCCC2=O)cc1 (stereo not given) ?
(A) no (0)

(Q) What did the test return for FC(F)OC(Cl)C(F)(F)F (stereo not given) ?
(A) no (0)

(Q) What did the test return for CCSC(=O)N(CC(C)C)CC(C)C ?
(A) no (0)

(Q) What did the test return for O=c1cc(-c2ccccc2)oc2ccccc12 ?
(A) no (0)

(Q) What did the test return for COC(=O)c1cc(C(=O)OC)cc(S(=O)(=O)O)c1 ?
(A) no (0)

(Q) What did the test return for c1cnc(N2CCN(Cc3ccc4c(c3)OCO4)CC2)nc1 ?
(A) no (0)

(Q) What did the test return for CC(=O)OCC(CCn1cnc2cnc(N)nc21)COC(C)=O ?
(A) no (0)

(Q) What did the test return for COc1ccc(CCN(C)CCCC(C#N)(c2cc(OC)c(OC)c(OC)c2)C(C)C)cc1OC (stereo not given) ?
(A) yes (1)

(Q) What did the test return for C=C(C)C(=O)OCCCCCCCC(C)C ?
(A) no (0)

(Q) What did the test return for COC(=O)c1c(Cl)c(Cl)c(C(=O)OC)c(Cl)c1Cl ?
(A) no (0)

(Q) What did the test return for CCn1ccnc1CC1COc2ccccc2O1 (stereo not given) ?
(A) no (0)

(Q) What did the test return for c1ccc(CC2=NCCN2)cc1 ?
(A) no (0)

(Q) What did the test return for CCCN1CCCC[C@H]1C(=O)Nc1c(C)cccc1C ?
(A) no (0)

(Q) What did the test return for CCCCNC(=O)NCCCC ?
(A) no (0)

(Q) What did the test return for C=C1CC[C@H]2C[C@@H]1C2(C)C ?
(A) no (0)

(Q) What did the test return for ClC(Cl)(Br)Br ?
(A) no (0)

(Q) What did the test return for CCOC(C)(C)C ?
(A) no (0)

* * *

# target-under-test: Progesterone receptor (Homo sapiens)
# protocol-text: qHTS assay to identify small molecule antagonists of the progesterone receptor (PR) signaling pathway (AID 1346795); also: % is scaled to controls: 0 for no effect and ±100 for the full control effect
# applied-conditions: PR-UAS-bla HEK293T, beta-lactamase FRET ratio, 16 h; series mostly up to 42.5 µM
Results filed as inconclusive are left out. Activity calls are given as the source filed them. Calls follow the shape of the dose curve; as a rule, active = well fitted inhibition curve with a large enough effect in the signal ratio in the repeat runs (not every such curve was filed as active); inconclusive = weak or mixed curves; inactive = flat fitted curve, though single readings scatter; the % refers to the signal ratio.
measurement-kind: activity change, negative = inhibition

Looking up COCCCOCCCOC , I see its activity change, negative = inhibition listed as inactive

Looking up CN1CCC(=C2c3ccccc3CC(=O)c3sccc32)CC1 , I see its activity change, negative = inhibition listed as inactive

Looking up CCO/C([O-])=N/c1c[n+](N2CCOCC2)no1 , I see its activity change, negative = inhibition listed as inactive

Looking up ClC(Cl)(Br)Br , I see its activity change, negative = inhibition listed as inactive
